Target Or System: T1, phosphorylated Tau fragment Ser-Ile-Asp-Met-Val-Asp-Ser(PO3H2)-Pro-Gln-Leu-Ala-Thr-Leu-Ala-Asp (SEQ ID NO:9) (human, also: biotin attached through 1x epsilon-lysine and 4x beta-alanine, site not given here)
T1 construct: also called Tau (416-430)[pS422]; Tau phosphopeptide
T1 peptide: SIDMVD[pS]PQLATLAD
Procedure Summary: ELISA, biotinylated peptide on streptavidin plate, anti-rabbit IgG detection
Square brackets hold non-standard residues; d marks the D form. Ends that are not written are not given here. pS = N[C@@H](COP(=O)(O)O)C(=O)O
# Lookup of reported EC50 keyed by entry
Measured Attribute: EC50 (ng/mL)

[[record]]
binder = "anti-Tau pS422 antibody Mab 085 (antibody, V domains shown, Rabbit monoclonal antibody, recombinantly expressed in HEK293 with rabbit kappa and gamma constant regions) VH: QSVEESGGRLVTPGTPLTLTCTVSGLSLSSNAINWVRQAPGKGLEWIGYIAVSGNTYYASWAKGRFTISKASTTVDLKMTSPTAEDTGTYFCGKSNIWGPGTLVTVSL VL: QVLTQTASPVSAAVGITVTISCQSSQSVRTNKLAWFQQKPGQPPKRLIYSASTLDSGVPSRFSASGSGTQFTLTISDVQCDDAATYYCLGYYDCSIADCVAFGGGTEVVVK"
op = "="
experimental_result = 0.9

[[record]]
binder = "anti-Tau pS422 antibody Mab 019 (antibody, V domains shown, Rabbit monoclonal antibody, recombinantly expressed in HEK293 with rabbit kappa and gamma constant regions) VH: QSVEESGGRLVTPGTPLTLTCTVSGIDLSSYTMNWVRQAPGKGLDWIGFINSGGYTSYASWTRGRFTISKTSTTVDLRITSPTTEDTATYFCARYGGGSGFDLWGPGTLVTVSS VL: QVLTQTASSVSAAVGGTVTINCQSSQSVYNNRLAWYQQKPGQPPKLLIYKASTLASGVPSRFKGSGSGTQFTLTISDLECDDAATYYCAGGYINIFAFGGGTEVVVK"
op = "<"
experimental_result = 3

[[record]]
binder = "anti-Tau pS422 antibody Mab 005 (antibody, V domains shown, Rabbit monoclonal antibody, recombinantly expressed in HEK293 with rabbit kappa and gamma constant regions) VH: QSVEESGGRLVTPGTPLTLTCTVSGLSLSSNAINWVRQAPGKGLEWIGYISTSGNTYYASWAKGRFTISKTSTTVDLKITSPTTEDTATYFCGRGDLWGPGTLVTVSS VL: QVLTQTASPVSAAVGSTVTINCQASQSVYKNNYLAWFQQKPGQPPKRLIYSASTLASGVSSRFKGSGSGTQFTLTISDVQCDDAATYYCLGSCDSSSNNCVAFGGGTEVVVK"
op = "<"
experimental_result = 3

[[record]]
binder = "anti-Tau pS422 antibody Mab 086 (antibody, V domains shown, Rabbit monoclonal antibody, recombinantly expressed in HEK293 with rabbit kappa and gamma constant regions) VH: QSVEESGGRLVTPGTPLTLTCTVSGFSLSSNAINWVRQAPGKGLEWIGYIAVSGNTYYASWAKGRFTISKASTTVDLKMTSPTAEDTGTYFCGKSNIWGPGTLVTVSL VL: QVLTQTTSPVSAAVGSTVTISCQSSQSVRTNKLAWFQQKPGQPPKRLIYSASTLDFGVPSRFSASGSGTQFTLTISDVQCDDAATYYCLGYFDCSIADCVAFGGGTEVVVK"
op = "="
experimental_result = 1.1

[[record]]
binder = "anti-Tau pS422 antibody Mab 097 (antibody, V domains shown, Rabbit monoclonal antibody, recombinantly expressed in HEK293 with rabbit kappa and gamma constant regions) VH: QSVEESGGRLVTPGTPLTLTCTVSGIDLSSYSITWVRQAPGKGLEYIGFIGTGGSTYYASWAKGRFTISRTSTTVDLKITSPTTEDTATYFCARGGDLWGPGTLVTVSS VL: QVLTQTASSVSAAVGGTVTINCQSSQNVYNNNKLAWFQQKPGQPPKRLIYGASTLASGVSSRFKGSGSGTQFTLTISDLECDDAATYYCLGGYSGNIYTFGGGTEVVVK"
op = "="
experimental_result = 1.3

